Data provenance is patent US10597388B2.

As shown below, each of these compounds has a reported Plant response rating, Ryegrass, Italian value.
# Test system: ryegrass, Italian (Italian ryegrass, Lolium multiflorum)
# Test Protocol: Test D controlled growth environment herbicide test, pre- and postemergence
# Type: in vivo
# Conditions Used: postemergence, 62 g ai/ha; scale 0 to 100, 0 no effect, 100 complete control

// below: answered compounds
{"Compound": "CC(=O)Oc1c(C)nn(C)c(=O)c1-c1c(C)sc2c(C)cc(C)cc12 [Compound 27]", "Plant response rating, Ryegrass, Italian": 85}
{"Compound": "CCOC(=O)Oc1c(C)nn(C)c(=O)c1-c1c(C)sc2ccc(C)cc12 [Compound 82]", "Plant response rating, Ryegrass, Italian": 85}
{"Compound": "Cc1ccc2ccc(C)c(-c3c(O)c(C)nn(C)c3=O)c2c1 [Compound 60]", "Plant response rating, Ryegrass, Italian": 90}

-- ask Please list Plant response rating, Ryegrass, Italian recorded for the compound COc1nn(C)c(=O)c(-c2c(C)ccc3ccccc23)c1O [Compound 54]
-- reply 85

-- ask State, in one line, measured Plant response rating, Ryegrass, Italian of Cc1ccc2ccccc2c1-c1c(O)c(C)nn(C)c1=O [Compound 59]
-- reply 90

-- ask Please give measured Plant response rating, Ryegrass, Italian of the following entry: Cc1ccc(-c2c(O)c(Br)nn(C)c2=O)c2ccccc12 [Compound 52]
-- reply 50

-- ask Please look at this compound and report its Plant response rating, Ryegrass, Italian: Cc1nn(C)c(=O)c(-c2c(C)sc3ccc(Cl)cc23)c1O [Compound 104]
-- reply 95
